Hello, the source for this data is PubChem BioAssay (Tox21), in case you need it.

- procedure.summary: qHTS assay for identifying genotoxic compounds that show differential cytotoxicity against isogenic chicken DT40 cell lines with known DNA damage response pathways - wild type cell line (AID 743012); note: nearly all actives have a fitted effect of over 60% in size
- experimental.parameters: DT40 wild type chicken cells viability, CellTiter-Glo, 40 h; series mostly up to 68.4 µM
Results filed as inconclusive are left out. Active and inactive are the calls of the source. Calls come from the whole dose curve; as a rule, active = well fitted cell-killing curve with a large enough effect in the repeat runs; inconclusive = weak or mixed curves, or effect the other way; inactive = no such curve, though single readings can be large or run the other way.
Possible outcomes: YES (active), NO (inactive)

{"molecule": "CSSc1ccoc1C", "label.value": "YES"}
{"molecule": "COC(OC)OC", "label.value": "NO"}
{"molecule": "CC[C@H]1OC(=O)[C@H](C)[C@@H](O[C@H]2C[C@@](C)(OC)[C@@H](O)[C@H](C)O2)[C@H](C)[C@@H](O[C@@H]2O[C@H](C)C[C@H](N(C)C)[C@H]2O)[C@](C)(O)C[C@@H](C)C(=O)[C@H](C)[C@@H](O)[C@]1(C)O", "label.value": "NO"}
{"molecule": "CC1CCc2nccnc21 (configuration not stated)", "label.value": "NO"}
{"molecule": "CCCCCCCCCCCCCC(=O)OCC(O)CO (configuration not stated)", "label.value": "NO"}
{"molecule": "COc1ccc(C2C(=O)c3ccccc3C2=O)cc1", "label.value": "NO"}
{"molecule": "SCCc1cnccn1", "label.value": "NO"}
